biological target: UniProt P17538; experiment: Inhibitory activity against chymotrypsinogen in the presence of Zn(II) (500 uM)
measurement.type: IC50 (µM)
Reply numerically in µM, unit not repeated.

// query Consider the compound shown here: O=C(N[C@H](CS)Cc1ccccc1)c1ccccc1 What is its recorded IC50?
// result 23

// query Can you check O=C(N[C@@H](CS)Cc1ccccc1)OCc1ccccc1 next?
// result 6

// query Request: O=C(N[C@H](CS)Cc1ccccc1)[C@@H]1CCCN1C(=O)OCc1ccccc1
// result 8

// query Also check O=C(N[C@H](CS)Cc1ccccc1)OCc1ccccc1
// result 3.8

====

molecular target: Chymotrypsinogen B (Homo sapiens, UniProt P17538); experiment: Inhibitory activity against chymotrypsinogen in the presence of Zn(II) (500 uM)
Sequence (P17538 34-164 limits assumed, other chains not shown): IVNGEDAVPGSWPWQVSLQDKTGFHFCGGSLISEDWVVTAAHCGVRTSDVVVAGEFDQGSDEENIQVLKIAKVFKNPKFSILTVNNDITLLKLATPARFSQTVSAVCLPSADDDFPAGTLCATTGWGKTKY
Sequence (P17538 167-263 limits assumed, other chains not shown): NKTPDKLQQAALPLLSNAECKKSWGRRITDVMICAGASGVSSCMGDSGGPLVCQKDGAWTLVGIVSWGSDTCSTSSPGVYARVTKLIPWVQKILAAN
pIC50: −log10 of the molar value.
measurement.type: pIC50

// query Find the recorded pIC50 belonging to CC(=O)N[C@H](CS)Cc1ccccc1 and report it.
// result < 3.10

// query Ok, now O=C(N[C@@H](CO)Cc1ccccc1)OCc1ccccc1
// result < 2.52

// query Then O=C(N[C@H](CO)Cc1ccccc1)OCc1ccccc1 ?
// result < 2.52
